target: human DLL3 endogenously expressed on SHP77 and NCI-H82 cells (human) (UniProt Q9NYJ7); assay: FACS SHP77 cells, 0.16 nM
Sequence (Q9NYJ7 27-618): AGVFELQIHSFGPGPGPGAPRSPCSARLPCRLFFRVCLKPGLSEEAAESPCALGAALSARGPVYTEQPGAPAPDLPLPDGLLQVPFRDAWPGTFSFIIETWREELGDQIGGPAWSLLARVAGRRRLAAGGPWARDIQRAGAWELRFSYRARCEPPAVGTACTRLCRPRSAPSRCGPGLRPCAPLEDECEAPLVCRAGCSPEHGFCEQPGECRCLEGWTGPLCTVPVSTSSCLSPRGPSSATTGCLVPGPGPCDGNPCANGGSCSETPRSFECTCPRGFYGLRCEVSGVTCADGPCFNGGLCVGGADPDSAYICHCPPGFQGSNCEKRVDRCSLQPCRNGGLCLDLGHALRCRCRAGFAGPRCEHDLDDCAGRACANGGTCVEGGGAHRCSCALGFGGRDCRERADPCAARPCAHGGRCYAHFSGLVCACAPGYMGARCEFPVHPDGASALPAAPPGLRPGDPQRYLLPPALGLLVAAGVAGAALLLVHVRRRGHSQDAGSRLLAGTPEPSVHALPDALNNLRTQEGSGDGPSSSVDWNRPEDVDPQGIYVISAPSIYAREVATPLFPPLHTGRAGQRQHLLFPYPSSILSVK
Provide the recorded MFI for the entries that follow.
Report the value in MFI with no unit label.

Form: binder = mab016 scFv-hFc (Fc fusion, not shown: small tags and cut ends; a dimerising Fc or GST) scFv (part 1 of 2): DIVMTQSQKFMSTTIGDRVSITCKASQNVGTTVAWYQQKPGQSPNLLLYSTSNRFTGVPDRFTGSGSGTDFTLTITNMQSEDLADYFCQQYNNYPLTFGGGTKLEIK scFv (part 2 of 2): EVNLEESGGGLVQPGGSMKLSCVASGFAFSNFWMQWVRQSPEKGLEWVAQIRLKSDNYAAHYAESVKGRFTISRDDSKSSVYLQLNNLRAEDTGTYYCTQGNWVGFAYWGQGTLVTVSA ; MFI = 391

Form: binder = mab011 scFv-hFc (Fc fusion, not shown: small tags and cut ends; a dimerising Fc or GST) scFv (part 1 of 2): DIVLTQSPATLSVTPGDSVSLSCRASQSISNNLHWYQQKSHESPRLLIKYASQSISGIPSRFSGSGSGTDFTLSINSVETEDFGMYFCQQSNSWPWTFGGGTKLEIK scFv (part 2 of 2): EVQLQQSGPELVKPGASVKISCKASGYTFTDYYMNWVKQSHGKSLEWIGDISPNYGGTNYNQKFKGKATLTVDKSSSTACMELRSLTSEDSAVYYCTRSFYYYGTGYDWYFDVWGTGTTVTVSS ; MFI = 239

Form: binder = mab014 scFv-hFc (Fc fusion, not shown: small tags and cut ends; a dimerising Fc or GST) scFv (part 1 of 2): DIQMTQSSSSFSVSLGDRVTITCKASEDIYNRLAWYQQKPGNTPRLLISGATSLETGVPSRFSGSGSGKDFTLSITSLQTEDVATYYCQQYWSLPWTFGGGTKLEIK scFv (part 2 of 2): EVQLHQSGPELVKPGTSVKISCKASGYTFTDYYMNWVKQSHGKSLEWIGDINPNHGDTGYNQKFTGKATLTVDKSSSTAYMELRSLTSEDSAVYYCARNFFYYGTTYGWYFDVWGTGTTVTVSS ; MFI = 237

Form: binder = mab008 scFv-hFc (Fc fusion, not shown: small tags and cut ends; a dimerising Fc or GST) scFv (part 1 of 2): DIVMTQSQKFMSTSVGDRVSITCKASQNVGTAVAWYQQKPGQSPKLLIFSASIRYTGVPDRFTGSGSGTDFTLTISNMQSEDLADYFCQQYSSSPYTFGGGTKLEIK scFv (part 2 of 2): EVQLQQSGPVLVKPGASVKMSCKASGYTFTDYYMNWVKRSHGKSLEWIGIINPYNGGTSYNQKFRGKATLTVDKSSNTAYMELNSLTSEDSAVYYCSRYDYDYDVEGAMDYWGQGTSVTVSS ; MFI = 130

Form: binder = mab006 scFv-hFc (Fc fusion, not shown: small tags and cut ends; a dimerising Fc or GST) scFv (part 1 of 2): DVQITQSPSYLAASPGETITINCRATKSISKYLAWYQEKPGKTNKLLIFSGSTLQSGIPSRFRGSGSGTDFTLTISSLEPEDFAMYYCQQHHEYPYTFGGGTKLEIK scFv (part 2 of 2): QVQLQQPGAELVRPGTSVKLSCKASGYTFTSYWMHWVRQRPGQGLEWIGVIDPSDSLANYNQEFKGKATLTVDTSSSTAYMQLSSLTSEDSAVYYCARDSTVVAPMDYWGQGTSVTVSS ; MFI = 497
